For each record, write down the corresponding activity coefficient.
test: activity coefficient (dimensionless); of the first substance listed, at infinite dilution; xn = mol fraction of the nth substance listed; details: 358.15 K; 101 kPa; Liquid; Chromatography; x1 = 0

Look up and state reported activity coefficient for Cc1ccccc1C [1,2-dimethylbenzene] + COCC[N+]1(C)CCCC1.O=S(=O)([N-]S(=O)(=O)C(F)(F)F)C(F)(F)F
1.99

Consider the compound c1ccccc1 [benzene] + COCC[N+]1(C)CCCC1.O=S(=O)([N-]S(=O)(=O)C(F)(F)F)C(F)(F)F and give its recorded activity coefficient.
1.08

Output measured activity coefficient for this item: C=CCCCC [hex-1-ene] + COCC[N+]1(C)CCCC1.O=S(=O)([N-]S(=O)(=O)C(F)(F)F)C(F)(F)F
8.24

Hello, please tell me recorded activity coefficient for this one: CCCO [propan-1-ol] + COCC[N+]1(C)CCCC1.O=S(=O)([N-]S(=O)(=O)C(F)(F)F)C(F)(F)F
1.58

Return activity coefficient (reported value) for this compound: CCCCO [butan-1-ol] + COCC[N+]1(C)CCCC1.O=S(=O)([N-]S(=O)(=O)C(F)(F)F)C(F)(F)F
1.98

Please give the documented activity coefficient of C1=CCCCC1 [cyclohexene] + COCC[N+]1(C)CCCC1.O=S(=O)([N-]S(=O)(=O)C(F)(F)F)C(F)(F)F
5.27

Read off the recorded activity coefficient for CC#N [acetonitrile] + COCC[N+]1(C)CCCC1.O=S(=O)([N-]S(=O)(=O)C(F)(F)F)C(F)(F)F
0.477

Identify the reported activity coefficient for the following entry. C1CCCC1 [cyclopentane] + COCC[N+]1(C)CCCC1.O=S(=O)([N-]S(=O)(=O)C(F)(F)F)C(F)(F)F
6.26

Give activity coefficient for CCOCC [diethyl ether] + COCC[N+]1(C)CCCC1.O=S(=O)([N-]S(=O)(=O)C(F)(F)F)C(F)(F)F
2.78

Assign activity coefficient to the following record: C1COCCO1 [1,4-dioxane] + COCC[N+]1(C)CCCC1.O=S(=O)([N-]S(=O)(=O)C(F)(F)F)C(F)(F)F
0.74

Provide activity coefficient value for the following compound: COC(C)(C)C [2-methoxy-2-methylpropane] + COCC[N+]1(C)CCCC1.O=S(=O)([N-]S(=O)(=O)C(F)(F)F)C(F)(F)F
2.86

Answer with reported activity coefficient of CCCCCCC [heptane] + COCC[N+]1(C)CCCC1.O=S(=O)([N-]S(=O)(=O)C(F)(F)F)C(F)(F)F
21.1

Let me know recorded activity coefficient for C=CCCCCC [1-heptene] + COCC[N+]1(C)CCCC1.O=S(=O)([N-]S(=O)(=O)C(F)(F)F)C(F)(F)F , thanks.
11.8

Indicate the recorded activity coefficient value for this compound: c1ccsc1 [thiophene] + COCC[N+]1(C)CCCC1.O=S(=O)([N-]S(=O)(=O)C(F)(F)F)C(F)(F)F
0.929

Give the reported value of activity coefficient for this record: Cc1ccc(C)cc1 [1,4-dimethylbenzene] + COCC[N+]1(C)CCCC1.O=S(=O)([N-]S(=O)(=O)C(F)(F)F)C(F)(F)F
2.21

Give the measured activity coefficient for CC(C)CO [2-methyl-1-propanol] + COCC[N+]1(C)CCCC1.O=S(=O)([N-]S(=O)(=O)C(F)(F)F)C(F)(F)F
1.84

Return value of activity coefficient for input CCC[N+](=O)[O-] [1-nitropropane] + COCC[N+]1(C)CCCC1.O=S(=O)([N-]S(=O)(=O)C(F)(F)F)C(F)(F)F , no commentary.
0.746

Cited source for all entries: the NIST ThermoML archive (doi:10.1016/j.jct.2012.03.015)
